Tested on: HCT-15
Give GI50 for every item shown.
Please reply with the bare figure in µM and do not write the unit itself.

What value of GI50 has been reported for the following molecule? COc1c(C(C)(C)C)cc(CC2C(=O)C=CC2=O)cc1C(C)(C)C
14.1

Would you kindly repeat that for O=C1Cc2c([nH]c3c(Br)cccc23)-c2ccccc2N1 ?
25.1

Would you kindly repeat that for CCCCN(CCCC)C(=O)C(=O)C(C(=O)C(=O)OC)c1nc2ccccc2o1 (configuration not stated) ?
44.5

Would you kindly repeat that for Cc1nn(-c2ccccc2)c2c1C(c1ccc(Cl)cc1)NC(=S)N2 (configuration not stated) ?
17.5

Would you kindly repeat that for CCCSc1ccc2[nH]c(N3C(=O)/C(=C/c4ccc(O)c(OC)c4)N=C3c3ccccc3)cc2c1 ?
4.43

Would you kindly repeat that for COC(=O)C1(C(=O)OC)CC(=O)c2cc3c(cc2-c2c(cc(OC)c(OC)c2OC)C1)OCO3 ?
204

Would you kindly repeat that for O=c1[nH]c(=O)n(C2CC(O)C(CO)O2)c2nc3ccc4ccccc4c3nc12 (configuration not stated) ?
62.2

Would you kindly repeat that for Cc1nn(-c2ccccc2)c2c1CC(=O)Nc1ccccc1-2 ?
0.618

Would you kindly repeat that for CC[N+]1(C)CCC(O)(c2ccc(C)cc2)C(C(=O)c2ccc(C)cc2)C1 (configuration not stated) ?
21.7

Would you kindly repeat that for O=C(Nc1nnc(-c2c(Cl)c(Cl)c(Cl)c(Cl)c2-c2nc3cc(C(=O)c4ccccc4)ccc3[nH]2)o1)c1ccc(Cl)cc1 ?
22.5

Would you kindly repeat that for O=C1C=C(NCCOCCO)C(=O)c2c(O)ccc(O)c21 ?
22.9

Would you kindly repeat that for C/C(=N/NC(=S)N1CCCCC1)c1cccc(/C(C)=N\NC(=S)N2CCCCC2)n1 ?
1.66

Would you kindly repeat that for O=[N+]([O-])/C=C(\CS(=O)(=O)c1ccccc1)c1ccc2c(c1)OCO2 ?
37.2
